# ASSAY_TARGET: fixed activated platelets (Homo sapiens, UniProt P05106+P08514)
# Sequence (P08514 32-1039): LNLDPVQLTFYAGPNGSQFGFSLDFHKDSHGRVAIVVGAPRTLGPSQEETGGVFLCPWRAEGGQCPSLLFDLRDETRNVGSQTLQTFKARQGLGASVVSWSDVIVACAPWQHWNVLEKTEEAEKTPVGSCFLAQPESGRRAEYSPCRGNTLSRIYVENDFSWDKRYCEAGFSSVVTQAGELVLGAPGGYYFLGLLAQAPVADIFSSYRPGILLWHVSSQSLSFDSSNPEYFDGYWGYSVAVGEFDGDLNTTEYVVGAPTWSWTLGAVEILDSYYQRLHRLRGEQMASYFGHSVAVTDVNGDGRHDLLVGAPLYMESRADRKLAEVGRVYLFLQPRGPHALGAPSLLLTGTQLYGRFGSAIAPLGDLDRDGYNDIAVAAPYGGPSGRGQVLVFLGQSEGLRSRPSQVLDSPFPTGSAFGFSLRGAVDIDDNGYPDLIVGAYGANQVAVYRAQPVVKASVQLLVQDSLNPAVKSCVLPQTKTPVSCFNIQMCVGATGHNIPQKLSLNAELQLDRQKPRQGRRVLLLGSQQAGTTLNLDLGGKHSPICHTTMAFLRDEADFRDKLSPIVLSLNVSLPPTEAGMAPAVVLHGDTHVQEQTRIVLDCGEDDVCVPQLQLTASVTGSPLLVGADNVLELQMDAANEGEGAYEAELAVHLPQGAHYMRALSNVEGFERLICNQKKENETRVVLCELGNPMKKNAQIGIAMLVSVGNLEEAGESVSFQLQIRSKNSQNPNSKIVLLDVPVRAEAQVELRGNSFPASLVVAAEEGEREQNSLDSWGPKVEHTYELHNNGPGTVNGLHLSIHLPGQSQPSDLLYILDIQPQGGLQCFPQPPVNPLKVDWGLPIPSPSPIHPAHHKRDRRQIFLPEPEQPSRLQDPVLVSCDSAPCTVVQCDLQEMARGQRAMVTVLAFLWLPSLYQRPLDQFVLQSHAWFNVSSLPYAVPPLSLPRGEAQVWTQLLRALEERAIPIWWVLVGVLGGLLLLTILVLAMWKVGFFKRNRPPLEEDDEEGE
# Sequence (P05106 27-788): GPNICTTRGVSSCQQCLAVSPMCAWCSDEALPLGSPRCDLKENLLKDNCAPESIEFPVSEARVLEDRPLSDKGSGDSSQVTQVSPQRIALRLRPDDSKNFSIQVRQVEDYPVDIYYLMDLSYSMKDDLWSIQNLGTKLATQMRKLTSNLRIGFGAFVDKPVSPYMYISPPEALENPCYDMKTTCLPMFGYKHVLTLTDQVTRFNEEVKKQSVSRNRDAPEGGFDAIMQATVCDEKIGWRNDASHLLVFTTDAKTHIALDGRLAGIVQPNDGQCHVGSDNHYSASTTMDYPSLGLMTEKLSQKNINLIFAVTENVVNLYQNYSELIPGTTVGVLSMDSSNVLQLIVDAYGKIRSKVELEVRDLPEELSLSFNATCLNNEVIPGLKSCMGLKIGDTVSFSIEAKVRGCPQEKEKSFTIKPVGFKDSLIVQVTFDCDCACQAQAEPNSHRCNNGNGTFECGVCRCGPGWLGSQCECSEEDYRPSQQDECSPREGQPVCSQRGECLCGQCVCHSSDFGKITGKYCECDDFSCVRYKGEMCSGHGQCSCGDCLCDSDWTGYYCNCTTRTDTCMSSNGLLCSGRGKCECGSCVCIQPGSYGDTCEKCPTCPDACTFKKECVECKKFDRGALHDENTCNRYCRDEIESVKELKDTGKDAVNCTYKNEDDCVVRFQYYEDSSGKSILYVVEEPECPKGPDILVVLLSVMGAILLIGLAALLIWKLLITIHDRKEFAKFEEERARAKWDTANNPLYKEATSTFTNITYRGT
# PROTOCOL_DESCRIPTION: Platelet Aggregation Assay (fibrinogen-mediated aggregation of fixed-activated platelets)
# Type: cell-based
# STUDY_CONDITIONS: read-out: Inhibition of Fibrinogen Mediated Platelet Aggregation % inhibition at 25 μM
# maps each entry to its inhibition at 25 µM
Could you give me the number in %? Just the number is fine.

Sample records with inhibition at 25 µM:
CC[C@H](C)[C@H](NC(=O)[C@H](CC(=O)O)NC(=O)CCCCCCCCNC(=N)N)C(=O)NCCCCNC(=N)N 95
CCN(CC(=O)N[C@@H](CC(=O)O)C(=O)NC(CC)(CC)C(=O)O)C(=O)CCCCCNC(=N)N 73
CCN(CC(=O)N[C@@H](CC(=O)O)C(=O)N[C@H](C(=O)O)C(C)C)C(=O)CCCCCn1ccnc1 95

For the next question, use this compound.
QUERY: Which inhibition at 25 µM value belongs to CC(C)C[C@H](NC(=O)[C@H](CC(=O)O)NC(=O)CCCCCCCCNC(=N)N)C(=O)O ?
RESULT: 95

* * *

# maps each entry to its inhibition at 25 µM
# ASSAY_TARGET: fixed activated platelets (Homo sapiens, UniProt P05106+P08514)
# PROTOCOL_DESCRIPTION: Platelet Aggregation Assay (fibrinogen-mediated aggregation of fixed-activated platelets)
# Type: cell-based
# STUDY_CONDITIONS: read-out: Inhibition of Fibrinogen Mediated Platelet Aggregation % inhibition at 25 μM
Could you give me the number in %? Just the number is fine.

MOLECULE	inhibition at 25 µM (%)
CC(C)[C@H](NC(=O)[C@H](CC(=O)O)NC(=O)C=CCCCCCNC(=N)N)C(=O)O	96
CC(C)[C@H](NC(=O)[C@H](CC(=O)O)NC(=O)CN(C(=O)CCCCCNC(=N)N)C(C)C)C(=O)O	83
CCc1nccn1CCCCCC(=O)N(C)CC(=O)N[C@@H](CC(=O)O)C(=O)N[C@H](C(=O)O)C(C)C	89
CCC(C)C[C@@H](NC(=O)[C@H](CC(=O)O)NC(=O)CCCCCCCCNC(=N)N)C(=O)N[C@@H](CCCNC(=N)N)C(=O)O (stereo partly shown)	98
CC(C)[C@H](NC(=O)[C@H](CC(=O)O)NC(=O)CCCCCCCn1ccnc1)C(=O)O	78
CC(C)[C@H](NC(=O)[C@H](CC(=O)O)NC(=O)CCCCCCn1ccnc1)C(=O)O	35

For the next question, use this molecule.
QUERY: Which inhibition at 25 µM value belongs to CCC(C)COC(=O)[C@H](CCCNC(=N)N)NC(=O)[C@H](CC(=O)O)NC(=O)CCCCCCCCNC(=N)N (stereo partly shown) ?
RESULT: 97

* * *

# maps each entry to its inhibition at 25 µM
# ASSAY_TARGET: fixed activated platelets (Homo sapiens, UniProt P05106+P08514)
# PROTOCOL_DESCRIPTION: Platelet Aggregation Assay (fibrinogen-mediated aggregation of fixed-activated platelets)
# Assay type: cell-based
# STUDY_CONDITIONS: read-out: Inhibition of Fibrinogen Mediated Platelet Aggregation % inhibition at 25 μM
Non-standard residues stand in square brackets, D forms with d. Residues, ends and D or L forms follow the SMILES beside them. Aoc = NCCCCCCCC(=O)O; Ahx = NCCCCCC(=O)O; NEtG = CCNCC(=O)O; Sar = CNCC(=O)O
Could you give me the number in %? Just the number is fine.

MOLECULE	PROPERTY_MEASURED	REPORTED_VALUE
CC(C)[C@H](NC(=O)[C@H](CC(=O)O)NC(=O)CCCCCCCNC(=N)N)C(=O)O [8-Guanidinooctanoyl-L-aspartyl-L-valine]	inhibition at 25 µM	89
CC(C)[C@H](NC(=O)[C@H](CC(=O)O)NC(=O)CN(C)C(=O)CCCCCCCN)C(=O)O (H-[Aoc][Sar]DV-OH)	inhibition at 25 µM	96
CC(C)[C@H](NC(=O)[C@H](CC(=O)O)NC(=O)Cn1nnnc1CCCCCNC(=N)N)C(=O)O	inhibition at 25 µM	40
CCC(C)[C@H](CCCNC(=N)N)NC(=O)[C@H](CC(=O)O)NC(=O)CCCCCCCCNC(=N)N (some centres unmarked)	inhibition at 25 µM	76
CC(C)[C@H](NC(=O)[C@H](CC(=O)O)NC(=O)C=CCCCCCCCNC(=N)N)C(=O)O	inhibition at 25 µM	77
CC(C)[C@H](NC(=O)[C@H](CC(=O)O)NC(=O)CCCCCCCNC(=N)N)c1nnn[nH]1	inhibition at 25 µM	32
N=C(N)NCCCCCCCC(=O)N[C@@H](CC(=O)O)C(=O)N[C@@H](CCCNC(=N)N)C(=O)O [8-Guanidinooctanoyl-L-aspartyl-arginine]	inhibition at 25 µM	94
N=C(N)NCCCCCCCCC(=O)N[C@@H](CC(=O)O)C(=O)N[C@@H](CCCNC(=N)N)C(=O)N[C@@H](CCCNC(=N)N)C(=O)O	inhibition at 25 µM	68
CCN(CC(=O)N[C@@H](CC(=O)O)C(=O)N[C@H](C(=O)O)C(C)C)C(=O)CCCCCN (H-[Ahx][NEtG]DV-OH)	inhibition at 25 µM	92
N=C(N)NCCCCCCCCC(=O)N[C@@H](CC(=O)O)C(=O)NC(Cc1ccccc1)(Cc1ccccc1)C(=O)O	inhibition at 25 µM	10

QUERY: Which inhibition at 25 µM value belongs to CC(C)[C@H](NC(=O)[C@H](CC(=O)O)NC(=O)CCCCCCCCN)C(=O)O [9-aminononanoyl-L-aspartyl-L-valine] ?
RESULT: 10.1

QUERY: Which inhibition at 25 µM value belongs to CC(C)[C@H](NC(=O)[C@H](CC(=O)O)NC(=O)CCCCCCCCCCCNC(=N)N)C(=O)O ?
RESULT: 36

QUERY: Which inhibition at 25 µM value belongs to CC(C)COC(=O)[C@H](CCCNC(=N)N)NC(=O)[C@H](CC(=O)O)NC(=O)CCCCCCCCNC(=N)N ?
RESULT: 97

QUERY: Which inhibition at 25 µM value belongs to N=C(N)NCCCCCCCC(=O)N[C@@H](CC(=O)O)C(=O)N[C@@H](CCCCN)C(=O)O [8-Guanidinooctanoyl-L-aspartyl-L-lysine] ?
RESULT: 93

QUERY: Which inhibition at 25 µM value belongs to CC(C)[C@H](NC(=O)[C@H](CC(=O)O)NC(=O)CN(Cc1ccccc1)C(=O)CCCCCNC(=N)N)C(=O)O ?
RESULT: 85

QUERY: Which inhibition at 25 µM value belongs to CC[C@H](C)[C@H](NC(=O)[C@H](CC(=O)O)NC(=O)CCCCCCCCNC(=N)N)C(=O)O ?
RESULT: 93

QUERY: Which inhibition at 25 µM value belongs to CC(C)CCOC(=O)[C@H](CCCNC(=N)N)NC(=O)[C@H](CC(=O)O)NC(=O)CCCCCCCCNC(=N)N ?
RESULT: 97

QUERY: Which inhibition at 25 µM value belongs to COC(=O)[C@H](CCCNC(=N)N)NC(=O)[C@H](CC(=O)O)NC(=O)CCCCCCCCNC(=N)N ?
RESULT: 91

* * *

# ASSAY_TARGET: fixed activated platelets (Homo sapiens, UniProt P05106+P08514)
# PROTOCOL_DESCRIPTION: Platelet Aggregation Assay (fibrinogen-mediated aggregation of fixed-activated platelets)
# Format: cell-based
# STUDY_CONDITIONS: fixed activated platelets, human fibrinogen 250 μg/ml; read-out: Inhibition of Fibrinogen Mediated Platelet Aggregation IC50
Non-standard residues stand in square brackets, D forms with d. Residues, ends and D or L forms follow the SMILES beside them. Aun = NCCCCCCCCCCC(=O)O
Label Yes when IC50 is strictly below 4 µM; at or above that, label No.

Please review the entries below; each comes with its answer.
COMPOUND	QUALITATIVE_LABEL
N=C(N)NCCCCCCCC(=O)N[C@@H](CC(=O)O)C(=O)N[C@@H](CCCCN)C(=O)O	Yes
CCN(CC(=O)N[C@@H](CC(=O)O)C(=O)N[C@@H](CC(C)C)C(=O)O)C(=O)CCCCCNC(=N)N	Yes
CC(C)[C@H](NC(=O)[C@H](CC(=O)O)NC(=O)CCCCCCCn1ccnc1)C(=O)O	No
N=C(N)NCCCCCCCCC(=O)N[C@@H](CC(=O)O)C(=O)NC(Cc1ccccc1)(Cc1ccccc1)C(=O)O	No
CC[C@H](C)[C@H](NC(=O)[C@@H](NC(=O)[C@H](CC(=O)O)NC(=O)CCCCCCCCNC(=N)N)[C@@H](C)CC)C(=O)O	No

QUERY: Input CC(C)C[C@H](NC(=O)[C@H](CC(=O)O)NC(=O)CN(C)C(=O)CCCCCNC(=N)N)C(=O)O ; condition: IC50 strictly below 4 µM. Does it hold?
RESULT: Yes

QUERY: Input CC(C)[C@H](NC(=O)[C@H](CC(=O)O)NC(=O)CCCCCCCNC(=N)N)c1nnn[nH]1 ; condition: IC50 strictly below 4 µM. Does it hold?
RESULT: No

QUERY: Input CC(C)[C@H](NC(=O)[C@H](CC(=O)O)NC(=O)CCCCCCCCCCN)C(=O)O [11-Aminoundecanoyl-L-aspartyl-L-valine] (H-[Aun]-Asp-Val-OH) ; condition: IC50 strictly below 4 µM. Does it hold?
RESULT: Yes

QUERY: Input N=C(N)NCCCCCCCCC(=O)N[C@@H](CC(=O)O)C(=O)NCCCCNC(=N)N ; condition: IC50 strictly below 4 µM. Does it hold?
RESULT: No

QUERY: Input N=C(N)NCCCCCCCCC(=O)N[C@@H](CC(=O)O)C(=O)N[C@@H](Cc1ccccc1)C(=O)N[C@@H](CCCNC(=N)N)C(=O)O ; condition: IC50 strictly below 4 µM. Does it hold?
RESULT: Yes

QUERY: Input N=C(N)NCCCCCCCCC(=O)N[C@@H](CC(=O)O)C(=O)NCC(=O)N[C@@H](CCCNC(=N)N)C(=O)O ; condition: IC50 strictly below 4 µM. Does it hold?
RESULT: Yes

QUERY: Input CC(C)[C@H](NC(=O)[C@H](CC(=O)O)NC(=O)CN(C(=O)CCCCCNC(=N)N)C(C)C)C(=O)O ; condition: IC50 strictly below 4 µM. Does it hold?
RESULT: No

QUERY: Input CCc1nccn1CCCCCC(=O)N(C)CC(=O)N[C@@H](CC(=O)O)C(=O)N[C@H](C(=O)O)C(C)C ; condition: IC50 strictly below 4 µM. Does it hold?
RESULT: No

QUERY: Input CC(C)[C@H](NC(=O)[C@H](C)NC(=O)CNC(=O)[C@@H](N)CCCNC(=N)N)C(=O)O [L-arginylglycyl-L-alanyl-L-valine] (H-RGAV-OH) ; condition: IC50 strictly below 4 µM. Does it hold?
RESULT: No
